Values were extracted from PubChem BioAssay (Tox21).

assay: qHTS assay to identify small molecule that activate the aryl hydrocarbon receptor (AhR) signaling pathway - cell viability counter screen (AID 743086); settings: HepG2-AhR-luc viability, CellTiter-Fluor, 24 h; series mostly up to 70.3 µM; further: nearly all actives have a fitted effect of over 45% in size
Records with an inconclusive call do not appear. Active and inactive are the calls of the source. The call rests on the fitted dose curve; in most records, active means well fitted cell-killing curve with a large enough effect in the repeat runs; inconclusive means weak or mixed curves, or effect the other way; inactive means flat fitted curve, though single readings scatter.
Please answer using one outcome listed in TRUE (active), FALSE (inactive)

1. CN1C(=O)CC(C)(c2ccccc2)C1=O (centres undefined) | FALSE
2. O=C(N/N=C/c1ccc([N+](=O)[O-])o1)c1ccc(O)cc1 | TRUE
3. C[N+]1(C)CCC(=C(c2ccccc2)c2ccccc2)CC1 | FALSE

// outcome(item) with item = `CC(C)C(=O)O`
FALSE

// outcome(item) with item = CC1CC(O)CC(C)(C)C1 (centres undefined)
FALSE

// outcome(item) with item = `Cc1ccc(Nc2nccc(N(C)c3ccc4c(C)n(C)nc4c3)n2)cc1S(N)(=O)=O`
TRUE

// outcome(item) with item = `C=CCOC(=O)/C=C\C(=O)OCC=C`
FALSE

// outcome(item) with item = `C=CC(C)(C)CC(=O)OC`
FALSE

// outcome(item) with item = `C[Si](NC1CCCCC1)(NC1CCCCC1)NC1CCCCC1`
FALSE

// outcome(item) with item = `Nc1nc(Cl)nc2c1ncn2[C@@H]1O[C@H](CO)[C@@H](O)[C@@H]1F`
FALSE

// outcome(item) with item = `CNC(=O)N(c1ccccc1)c1ccccc1`
FALSE

// outcome(item) with item = `Oc1ccc(Nc2ccccc2)cc1`
FALSE

// outcome(item) with item = `CNCCCC1c2ccccc2C=Cc2ccccc21`
FALSE

// outcome(item) with item = `Cc1ccnc2ccccc12`
FALSE

// outcome(item) with item = `OC(CCCN1CCCCC1)(c1ccccc1)c1ccccc1`
FALSE

// outcome(item) with item = `C[N+](C)(C)CCOC(N)=O`
FALSE
